# system_tested: Mcl-1 protein (UniProtKB primary accession number: Q07820) (Homo sapiens, UniProt Q07820)
# Sequence (Q07820 whole entry): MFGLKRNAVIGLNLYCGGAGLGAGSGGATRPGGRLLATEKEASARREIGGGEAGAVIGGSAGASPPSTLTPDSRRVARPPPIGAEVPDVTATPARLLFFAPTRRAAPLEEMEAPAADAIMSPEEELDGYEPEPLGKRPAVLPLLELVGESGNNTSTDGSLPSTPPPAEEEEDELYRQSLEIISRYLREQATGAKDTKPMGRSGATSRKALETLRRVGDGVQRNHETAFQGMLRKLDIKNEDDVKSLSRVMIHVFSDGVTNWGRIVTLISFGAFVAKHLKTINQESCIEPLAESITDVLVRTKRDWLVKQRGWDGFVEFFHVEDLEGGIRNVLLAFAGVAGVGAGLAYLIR
# measurement_description: Inhibition of Mcl-1 by fluorescence polarisation, Method 1
# Type: binding
# assay_context: fluorescence polarisation test; Method 2 values are underlined in the patent (underlining not visible here); read-out: IC50 (M) Mcl-1 FP
The following molecules are shown together with reported IC50 values.
Give the value, in units of M, as a plain number.

Use these answered entries as a reference point.
molecule: COCCOCCOCCOc1ccccc1CC(Oc1ncnc2sc(-c3ccc(F)cc3)c(-c3ccc(OCCN4CCN(C)CC4)c(Cl)c3C)c12)C(=O)O (stereo not drawn) [Example 106]
property_label: IC50
measured: 1.2e-08
--
molecule: COc1ccccc1CC(Oc1ncnc2sc(-c3ccco3)c(-c3ccc(OC4CN5CCC4CC5)c(Cl)c3C)c12)C(=O)O (single isomer, unassigned) [Example 307]
property_label: IC50
measured: 8.3e-09
--
molecule: Cc1cccc(C[C@@H](Oc2ncnc3sc(-c4ccco4)c(-c4ccc(OCCN5CCN(C)CC5)c(Cl)c4C)c23)C(=O)O)c1 [Example 347]
property_label: IC50
measured: 1.4e-08

We next turn to a different molecule, shown below.
// IC50 value for Cc1c(-c2c(-c3ccc(F)cc3)sc3ncnc(OC(Cc4ccccc4OCc4nncn4C)C(=O)O)c23)ccc(OCCN2CCN(C)CC2)c1Cl (stereo not drawn) [Example 102] : 9.5e-09

---

# System: H929 multiple myeloma tumour line
# measurement_description: In vitro cytotoxicity, Microculture Tetrazolium Assay
# Format: cell-based
# assay_context: Homo sapiens, NCI-H929, 48 h, H929 cells, 48 hours exposure, MTT; read-out: IC50 (μM) MTT H929
Form field: IC50 (one value per entry).
Kindly answer with a numeric value in µM, unit omitted.

In the examples that follow, each entry is paired with its recorded IC50.
compound: Cc1c(-c2c(-c3ccc(Cl)o3)sc3ncnc(OC(Cc4ccccc4OCc4cnccn4)C(=O)O)c23)ccc(OCCN2CCN(C)CC2)c1Cl (stereo not drawn) [Example 374]
IC50, µM: 0.038
//
compound: COc1cc(-c2sc3ncnc(OC(Cc4ccccc4OCc4ccccn4)C(=O)O)c3c2-c2ccc(OCCN3CCN(C)CC3)c(Cl)c2C)ccc1F (stereo not drawn) [Example 381]
IC50, µM: 0.119
//
compound: Cc1ccccc1CC(Oc1ncnc2sc(-c3ccco3)c(-c3ccc(OCCN4CCN(C)CC4)c(Cl)c3C)c12)C(=O)O (stereo not drawn) [Example 354]
IC50, µM: 0.544
//
compound: COc1nc(C)cc(COc2ccccc2CC(Oc2ncnc3sc(-c4ccc(F)o4)c(-c4ccc(OCCN5CCN(C)CC5)c(Cl)c4C)c23)C(=O)O)n1 (stereo not drawn) [Example 160]
IC50, µM: 0.021
//
compound: COCCOc1cc(COc2ccccc2CC(Oc2ncnc3sc(-c4ccc(F)cc4)c(-c4ccc(OCCN5CCN(C)CC5)c(Cl)c4C)c23)C(=O)O)ccn1 (stereo not drawn) [Example 22]
IC50, µM: 0.092

With those in mind, consider the next compound.
The recorded IC50 for Cc1c(-c2c(-c3ccc(F)cc3)sc3ncnc(OC(Cc4ccccc4OCc4ccnc(OC(C)C)n4)C(=O)O)c23)ccc(OCCN2CCN(C)CC2)c1Cl (stereo not drawn) [Example 55] is 0.007

---

# system_tested: Mcl-1 protein (UniProtKB primary accession number: Q07820) (Homo sapiens, UniProt Q07820)
# measurement_description: Inhibition of Mcl-1 by fluorescence polarisation, Method 1
# Type: binding
# assay_context: fluorescence polarisation test; Method 2 values are underlined in the patent (underlining not visible here); read-out: IC50 (M) Mcl-1 FP
# Description: The relative binding potency of each compound was determined via Fluorescence Polarisation (FP). An 11 point serial dilution of each compound was prepared in DMSO and 2 μl transferred into flat bottomed, low binding, 384-well plate (final DMSO concentration 5%). […]
property_label: IC50 (M)
Respond numerically; units are M and should not be typed.

Worked set:
compound: Cc1c(-c2c(-c3ccc(F)cc3)sc3ncnc(OC(Cc4ccccc4OCc4ccnc(-c5ccccn5)n4)C(=O)O)c23)ccc(OCCN2CCN(C)CC2)c1Cl (stereo not drawn) [Example 31]
IC50 / M: 5.6e-09
//
compound: COc1nccc(COc2ccccc2CC(Oc2ncnc3sc(-c4ccc(F)cc4)c(-c4ccc(OCCN5CCN(C)CC5)c(Cl)c4C)c23)C(=O)O)n1 (stereo not drawn) [Example 54]
IC50 / M: 5.7e-09

Measured IC50, Cc1c(-c2c(-c3ccc(F)o3)sc3ncnc(OC(Cc4ccccc4OCc4ccnc(C(F)(F)F)n4)C(=O)O)c23)ccc(OCCN(C)C)c1Cl (stereo not drawn) [Example 201] : 5.8e-09

So, COc1cc(-c2sc3ncnc(OC(Cc4ccccc4OCc4ccccn4)C(=O)O)c3c2-c2ccc(OCCN3CCN(C)CC3)c(Cl)c2C)ccc1F (stereo not drawn) [Example 381] ? Its IC50 was 1.3e-08

Looking up Cc1c(-c2c(-c3ccc(F)o3)sc3ncnc(OC(Cc4ccccc4OCc4ccnn4CC4CC4)C(=O)O)c23)ccc(OCCN2CCN(C)CC2)c1Cl (stereo not drawn) [Example 186] , I see its IC50 listed as 4.3e-09

Lab note: measured IC50 of COc1cccc(CC(Oc2ncnc3sc(-c4ccco4)c(-c4ccc(OCCN5CCN(C)CC5)c(Cl)c4C)c23)C(=O)O)c1 (stereo not drawn) [Example 349] was 2.7e-08
